- Test system: Plasmodium falciparum chloroquine-resistant clone: Indochina-W2 (IndCh-W2)
- Assay details: in vitro anti-malarial activity, semiautomated microdilution technique, chloroquine-resistant clone
- Assay type: cell-based
- Measurement parameters: index of activity (IC50) relative to Qinghaosu under the same conditions
Quantity kind: I-QHS

INSERT INTO assay_data (compound, tested_on, quantity_kind, measured_value) VALUES
  ('C1=C(c2ccccc2)C[C@@]2(c3ccccc3)OOC3(CCCC3)O[C@@H]12 [Compound 4]', 'Plasmodium falciparum chloroquine-resistant clone: Indochina-W2 (IndCh-W2)', 'I-QHS', 2.1),
  ('CCOC(=O)CCCC1(C)OO[C@]2(c3ccccc3)CC(c3ccccc3)=C[C@@H]2O1 (some centres unmarked) [Compound 18]', 'Plasmodium falciparum chloroquine-resistant clone: Indochina-W2 (IndCh-W2)', 'I-QHS', 0.09),
  ('CC1(C)OO[C@]2(c3ccccc3)C=C(c3ccccc3)C(=O)[C@@H]2O1 [Compound 9]', 'Plasmodium falciparum chloroquine-resistant clone: Indochina-W2 (IndCh-W2)', 'I-QHS', 0.08),
  ('O=C1CCC2(CC1)OO[C@]1(c3ccccc3)CC(c3ccccc3)=C[C@@H]1O2 (racemic) [Compound 17]', 'Plasmodium falciparum chloroquine-resistant clone: Indochina-W2 (IndCh-W2)', 'I-QHS', 2.1),
  ('CC(C)OC(=O)O[C@@H]1C(c2ccccc2)=C[C@@]2(c3ccccc3)OOC(C)(C)O[C@@H]12 [Compound 8]', 'Plasmodium falciparum chloroquine-resistant clone: Indochina-W2 (IndCh-W2)', 'I-QHS', 0.10),
  ('CC1(C)OO[C@]2(c3ccccc3)CC(c3ccccc3)=C[C@@H]2O1 [Compound 1]', 'Plasmodium falciparum chloroquine-resistant clone: Indochina-W2 (IndCh-W2)', 'I-QHS', 0.13),
  ('C1=C(c2ccccc2)C[C@@]2(c3ccccc3)OOC3(CCCCC3)O[C@@H]12 [Compound 5]', 'Plasmodium falciparum chloroquine-resistant clone: Indochina-W2 (IndCh-W2)', 'I-QHS', 0.26),
  ('CCC1(C)OO[C@]2(c3ccccc3)CC(c3ccccc3)=C[C@@H]2O1 (some centres unmarked) [Compound 21]', 'Plasmodium falciparum chloroquine-resistant clone: Indochina-W2 (IndCh-W2)', 'I-QHS', 0.075),
  ('CC1(C)OO[C@]2(c3ccccc3)C=C(c3ccccc3)[C@@H](OC(=O)c3ccccc3F)[C@@H]2O1 [Compound 7]', 'Plasmodium falciparum chloroquine-resistant clone: Indochina-W2 (IndCh-W2)', 'I-QHS', 0.04),
  ('CC1(C)OO[C@]2(c3ccccc3)C=C(c3ccccc3)[C@@H](O)[C@@H]2O1 [Compound 2]', 'Plasmodium falciparum chloroquine-resistant clone: Indochina-W2 (IndCh-W2)', 'I-QHS', 0.12),
  ('OO[C@@H]1C(c2ccccc2)=C[C@@]2(c3ccccc3)OOC3(CCCCC3)O[C@@H]12 [Compound 13]', 'Plasmodium falciparum chloroquine-resistant clone: Indochina-W2 (IndCh-W2)', 'I-QHS', 2.2),
  ('C1=C(c2ccccc2)C[C@@]2(c3ccccc3)OOC3(CCC4(CC3)OCCO4)O[C@@H]12 (racemic) [Compound 20]', 'Plasmodium falciparum chloroquine-resistant clone: Indochina-W2 (IndCh-W2)', 'I-QHS', 0.67),
  ('CC(C)CC(=O)O[C@@H]1C(c2ccccc2)=C[C@@]2(c3ccccc3)OOC(C)(C)O[C@@H]12 [Compound 10]', 'Plasmodium falciparum chloroquine-resistant clone: Indochina-W2 (IndCh-W2)', 'I-QHS', 0.04),
  ('O=C1C(c2ccccc2)=C[C@@]2(c3ccccc3)OOC3(CCCCC3)O[C@@H]12 [Compound 15]', 'Plasmodium falciparum chloroquine-resistant clone: Indochina-W2 (IndCh-W2)', 'I-QHS', 3.5),
  ('C1=C(c2ccccc2)C[C@@]2(c3ccccc3)OOC3(CCOCC3)O[C@@H]12 [Compound 12]', 'Plasmodium falciparum chloroquine-resistant clone: Indochina-W2 (IndCh-W2)', 'I-QHS', 18.7),
  ('O[C@@H]1C(c2ccccc2)=C[C@@]2(c3ccccc3)OOC3(CCCCC3)O[C@@H]12 [Compound 16]', 'Plasmodium falciparum chloroquine-resistant clone: Indochina-W2 (IndCh-W2)', 'I-QHS', 1.6),
  ('O[C@@H]1C(c2ccccc2)=C[C@@]2(c3ccccc3)OOC3(CCCC3)O[C@@H]12 [Compound 11]', 'Plasmodium falciparum chloroquine-resistant clone: Indochina-W2 (IndCh-W2)', 'I-QHS', 4.7);

Origin of values: patent EP0286316A1
